# Target Entity: T1, human GM-CSFRα, full length on cells (human, UniProt P15509 23-400)
# T1 sequence: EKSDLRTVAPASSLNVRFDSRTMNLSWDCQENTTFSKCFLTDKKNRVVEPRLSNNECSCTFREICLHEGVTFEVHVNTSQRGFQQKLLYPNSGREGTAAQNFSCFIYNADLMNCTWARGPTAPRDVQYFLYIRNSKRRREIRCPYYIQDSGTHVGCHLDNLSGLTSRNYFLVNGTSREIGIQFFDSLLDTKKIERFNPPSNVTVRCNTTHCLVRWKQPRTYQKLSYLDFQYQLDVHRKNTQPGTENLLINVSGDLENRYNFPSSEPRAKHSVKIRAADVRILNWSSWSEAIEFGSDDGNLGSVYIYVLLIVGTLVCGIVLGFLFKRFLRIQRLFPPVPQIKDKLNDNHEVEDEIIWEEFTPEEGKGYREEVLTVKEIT
# Experiment Summary: cell-based or functional assay
// reported IC50, TF-1 cell proliferation per item
Give a bare numeral; the unit µg/mL is implied.

// worked examples, IC50, TF-1 cell proliferation included
* E35-scFv LQ27E (scFv, V domains shown) VH: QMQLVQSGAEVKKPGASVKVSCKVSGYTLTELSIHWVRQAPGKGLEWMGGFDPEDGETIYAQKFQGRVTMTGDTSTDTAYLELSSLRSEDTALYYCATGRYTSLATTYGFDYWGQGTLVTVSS VL: EIVMTQSPATLSLSPGERATLSCRASESVSSYLAWYQQKPGQAPRLLIYGASSRATGIPDRFSGSGSGTDFTLTISRLEPEDFAVYYCQQYDNWPYTFGQGTKLEIK | 0.135
* E35-scFv HT30M (scFv, V domains shown) VH: QMQLVQSGAEVKKPGASVKVSCKVSGYTLMELSIHWVRQAPGKGLEWMGGFDPEDGETIYAQKFQGRVTMTGDTSTDTAYLELSSLRSEDTALYYCATGRYTSLATTYGFDYWGQGTLVTVSS VL: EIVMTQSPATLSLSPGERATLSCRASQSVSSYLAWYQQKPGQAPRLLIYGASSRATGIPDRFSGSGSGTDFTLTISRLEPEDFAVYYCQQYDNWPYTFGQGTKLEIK | 0.174

We now examine a further binder.
Field request: IC50, TF-1 cell proliferation | item: E35-scFv LQ27F (scFv, V domains shown) VH: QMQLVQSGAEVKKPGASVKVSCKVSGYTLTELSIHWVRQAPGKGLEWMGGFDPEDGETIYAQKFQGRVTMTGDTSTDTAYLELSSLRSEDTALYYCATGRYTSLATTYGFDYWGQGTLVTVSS VL: EIVMTQSPATLSLSPGERATLSCRASFSVSSYLAWYQQKPGQAPRLLIYGASSRATGIPDRFSGSGSGTDFTLTISRLEPEDFAVYYCQQYDNWPYTFGQGTKLEIK 0.113
